tested_target: GABA transporter 4 (Mus musculus, UniProt P31650)
Sequence (P31650 whole entry): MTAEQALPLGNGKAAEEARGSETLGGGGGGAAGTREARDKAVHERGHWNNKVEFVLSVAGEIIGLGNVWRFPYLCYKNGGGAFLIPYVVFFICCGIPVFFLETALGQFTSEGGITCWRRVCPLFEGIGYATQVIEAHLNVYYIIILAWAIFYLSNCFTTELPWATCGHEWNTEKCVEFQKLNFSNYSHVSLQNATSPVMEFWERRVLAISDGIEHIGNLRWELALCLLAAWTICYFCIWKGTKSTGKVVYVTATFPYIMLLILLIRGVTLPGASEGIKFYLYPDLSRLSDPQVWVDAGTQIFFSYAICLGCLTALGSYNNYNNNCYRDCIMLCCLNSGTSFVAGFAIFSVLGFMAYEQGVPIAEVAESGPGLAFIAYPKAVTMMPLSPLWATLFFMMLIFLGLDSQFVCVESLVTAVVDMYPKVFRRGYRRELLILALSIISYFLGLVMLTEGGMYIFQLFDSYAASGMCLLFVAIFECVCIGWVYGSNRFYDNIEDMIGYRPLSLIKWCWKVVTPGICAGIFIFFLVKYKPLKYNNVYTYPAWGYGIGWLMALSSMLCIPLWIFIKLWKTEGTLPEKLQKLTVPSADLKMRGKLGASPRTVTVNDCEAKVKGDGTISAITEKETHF
assay_method_text: Inhibition of mouse GAT4 expressed in HEK293 cells assessed as decrease in [3H]GABA uptake preincubated for 25 mins followed by [3H]GABA addition measured after 4 mins by liquid scintillation counter method
assay_readout: pIC50
// pIC50 here means minus log10 of the molar concentration (mol/L)

1. COc1ccc(C2(/C=C/COCCn3ccnc3CCC(=O)O)c3ccccc3-c3ccccc32)cc1 4.66
2. COc1ccc(C2(OC/C=C\Cn3ccnc3CCC(=O)O)c3ccccc3-c3ccccc32)cc1 4.88
3. COc1ccc(C2(OCCCCCn3cnc(CC(=O)O)c3)c3ccccc3-c3ccccc32)cc1 3.98
4. COc1ccc(C2(/C=C/Cn3cnc(CC(=O)O)c3)c3ccccc3-c3ccccc32)cc1 4.40
5. COc1ccc(C2(OCCCCCn3ccnc3/C=C/C(=O)O)c3ccccc3-c3ccccc32)cc1 4.99

Query :: pIC50 lookup needed for "COc1ccc(C2(OCCCCn3cnc(CC(=O)O)c3)c3ccccc3-c3ccccc32)cc1" , thanks.
Result :: 4.31

###

tested_target: Sodium- and chloride-dependent GABA transporter 1 (Mus musculus) (UniProt P31648)
assay_method_text: Inhibition of mouse GAT1 expressed in HEK293 cells assessed as decrease in [3H]GABA uptake at 100 uM preincubated for 25 mins followed by [3H]GABA addition measured after 4 mins by liquid scintillation counter method
Format: cell-based
We use 60% as the dividing line for inhibition: on or above the line is Criterion met, below is Criterion not met.

Query :: Kindly determine if inhibition recorded for "COc1ccc(C2(OCCn3cncc3CC(=O)O)c3ccccc3-c3ccccc32)cc1" is above or exactly 60%.
Result :: Criterion met

Query :: Reported inhibition at or above 60%? "COc1ccc(C2(OC/C=C/Cn3ccnc3CCC(=O)O)c3ccccc3-c3ccccc32)cc1"
Result :: Criterion not met

Query :: Test whether the compound "COc1ccc(C2(OCCCCCn3cnc(CC(=O)O)c3)c3ccccc3-c3ccccc32)cc1" records inhibition of 60% or higher.
Result :: Criterion met

###

Below is a list of entries, each paired with its recorded inhibition value.
tested_target: Sodium- and chloride-dependent GABA transporter 1 (Mus musculus)
assay_method_text: Inhibition of mouse GAT1 expressed in HEK293 cells assessed as decrease in [3H]GABA uptake at 100 uM preincubated for 25 mins followed by [3H]GABA addition measured after 4 mins by liquid scintillation counter method
Assay type: cell-based
Just the number in %, nothing appended.

Answered cases to consult:
1. COc1ccc(C2(/C=C/Cn3ccnc3CCC(=O)O)c3ccccc3-c3ccccc32)cc1 48.5
2. COc1ccc(C2(OCCCCn3cncc3CC(=O)O)c3ccccc3-c3ccccc32)cc1 70.8
3. COc1ccc(C2(OCCn3ccnc3CCC(=O)O)c3ccccc3-c3ccccc32)cc1 64.8

Kindly consider the entry below.
Query :: Return reported inhibition; argument: "O=C(O)/C=C/c1ncc[nH]1"
Result :: 73.7
